experimental_target: pig liver glycolate oxidase (Sus scrofa)
Construct: The enzyme was pig liver glycolate oxidase; from tissue; host or cells: pig liver
assay: Glycolate oxidase enzyme inhibition
Format: biochemical
stated_conditions: 25° C., 0.10 M phosphate buffer pH 7.0, 3 mM EDTA, 2×10^-4 M sodium glycolate, unit inferred
pIC50: −log10 of the molar value.
measured_parameter: pIC50

1. CSc1ccc(-c2ccc(C(=O)CC(=O)C(=O)O)cc2)cc1; 6.82

----------
experimental_target: pig liver glycolate oxidase (Sus scrofa)
Construct: The enzyme was pig liver glycolate oxidase; from tissue; host or cells: pig liver
Sequence (I3LVF1 1-370): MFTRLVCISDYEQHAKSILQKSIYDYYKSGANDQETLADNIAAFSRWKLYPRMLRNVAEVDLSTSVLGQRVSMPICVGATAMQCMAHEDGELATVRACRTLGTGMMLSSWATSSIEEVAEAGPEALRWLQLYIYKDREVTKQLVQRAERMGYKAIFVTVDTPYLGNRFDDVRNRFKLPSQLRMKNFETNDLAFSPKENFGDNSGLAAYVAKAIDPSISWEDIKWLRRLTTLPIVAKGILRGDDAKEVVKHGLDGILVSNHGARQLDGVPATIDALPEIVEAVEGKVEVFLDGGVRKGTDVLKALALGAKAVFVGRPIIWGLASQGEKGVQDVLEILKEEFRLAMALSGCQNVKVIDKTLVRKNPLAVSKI
assay: Glycolate oxidase enzyme inhibition
Assay type: biochemical
stated_conditions: 25° C., 0.10 M phosphate buffer pH 7.0, 3 mM EDTA, 2×10^-4 M sodium glycolate
measured_parameter: IC50 (nM)

1) O=C(O)C(=O)CC(=O)c1ccc(-c2ccc(S)cc2)cc1; 2100
2) O=C(O)C(=O)CC(=O)c1ccc(-c2ccc(SCc3ccccc3)cc2)cc1; 420
3) O=C(O)C(=O)CC(=O)c1ccc(-c2ccc(SCCc3ccncc3)cc2)cc1; 90
4) O=C(O)C(=O)CC(=O)c1ccc(-c2ccc(SCC3(O)COc4ccccc4OC3)cc2)cc1; 62
